# procedure-summary: Pre- and postnatal development study in rats
# Assay type: in vivo, rat
# measurement-parameters: female, rat, plasma, oral; rats, lactation day 21, 300 mg/kg/day; read-out: maternal plasma concentration
experimental-endpoint: concentration at 21 lactation day (ng/mL)
Enter your answer as a number in ng/mL; do not include the unit.

## Task Given the compound COc1cccc(-c2c(C)n(Cc3c(F)cccc3C(F)(F)F)c(=O)n(C[C@H](NCCCC(=O)O)c3ccccc3)c2=O)c1F [elagolix] , what is its reported concentration at 21 lactation day?
## Result 125

====

# procedure-summary: clinical
# measurement-parameters: female, human, in vivo, 40 mg
experimental-endpoint: Cmax (ng/mL)
Write down the numeric answer in ng/mL and omit the unit.

## Task What value of measured Cmax is listed for COc1ccc2nc(S(=O)(=O)Cc3ncc(C)c(OC)c3C)[nH]c2c1 [omeprazole sulfone] ?
## Result 162
